- ASSAY TEXT: Half life in human liver microsomes at 1 uM by LC-MS/MS analysis
- Format: ADME
MEASUREMENT KIND: half-life at 1 µM (s)
Kindly answer with a numeric value in s, unit omitted.

Could you tell me which half-life at 1 µM is on file for `C[C@@H]1CN([C@@H](C)CO)S(=O)(=O)c2ccc(C#Cc3cccc(F)c3)cc2O[C@H]1CN(C)C(=O)NC1CCCCC1` ?
42

* * *

- ASSAY TEXT: Thermodynamic solubility of the compound in PBS at 100 uM and pH 7.4 measured after 18 hrs by UPLC-MS analysis
- Assay type: physicochemical
- TEST SETTINGS: read-out: Therm_solubility
MEASUREMENT KIND: solubility thermodynamic at 18 h, 100 µM (µM)
Kindly answer with a numeric value in µM, unit omitted.

Could you tell me which solubility thermodynamic at 18 h, 100 µM is on file for `C[C@@H]1CN([C@@H](C)CO)S(=O)(=O)c2ccc(C#Cc3cccc(F)c3)cc2O[C@H]1CN(C)C(=O)NC1CCCCC1` ?
5
